Listed here are compounds together with their documented Dmax.
# Tgt: Cbl-b (Homo sapiens, UniProt Q13191)
# Construct: Cbl-b-HiBit KI Jurkat Cells were purchased from Promega; host or cells: Cbl-b-HiBiT knock-in Jurkat cells
# Sequence (Q13191 whole entry): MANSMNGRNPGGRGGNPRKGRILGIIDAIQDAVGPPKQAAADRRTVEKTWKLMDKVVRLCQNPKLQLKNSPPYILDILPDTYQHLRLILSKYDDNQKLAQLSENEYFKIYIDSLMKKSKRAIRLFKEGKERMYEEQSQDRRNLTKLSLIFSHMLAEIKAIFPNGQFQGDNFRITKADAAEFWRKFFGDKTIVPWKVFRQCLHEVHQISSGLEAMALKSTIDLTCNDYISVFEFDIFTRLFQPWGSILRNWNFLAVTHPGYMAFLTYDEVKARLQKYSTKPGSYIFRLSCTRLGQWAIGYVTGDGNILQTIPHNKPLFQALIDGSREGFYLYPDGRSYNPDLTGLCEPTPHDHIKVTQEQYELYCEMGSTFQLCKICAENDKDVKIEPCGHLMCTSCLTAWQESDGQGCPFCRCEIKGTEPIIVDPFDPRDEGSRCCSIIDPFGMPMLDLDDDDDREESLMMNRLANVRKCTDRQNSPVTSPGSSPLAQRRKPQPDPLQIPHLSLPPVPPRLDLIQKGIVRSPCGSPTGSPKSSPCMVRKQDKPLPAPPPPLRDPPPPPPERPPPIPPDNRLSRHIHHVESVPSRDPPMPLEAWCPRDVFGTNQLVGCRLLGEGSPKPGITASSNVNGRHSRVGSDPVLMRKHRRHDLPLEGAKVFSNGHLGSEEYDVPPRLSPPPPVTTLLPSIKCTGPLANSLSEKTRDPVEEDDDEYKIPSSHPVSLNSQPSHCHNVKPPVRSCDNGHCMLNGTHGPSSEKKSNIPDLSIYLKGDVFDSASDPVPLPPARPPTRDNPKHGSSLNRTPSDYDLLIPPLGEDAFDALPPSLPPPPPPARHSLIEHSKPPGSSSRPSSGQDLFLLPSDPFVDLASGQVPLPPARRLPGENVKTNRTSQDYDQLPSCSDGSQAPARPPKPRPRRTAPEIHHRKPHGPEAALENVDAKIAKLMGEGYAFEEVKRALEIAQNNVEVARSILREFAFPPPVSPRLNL
# Protocol Description: Cbl-b Degradation Method B (Nano-Glo HiBiT lytic detection)
# Format: cell-based
# Condition Context: Cbl-b-HiBit KI Jurkat Cells, incubated at least 6-24 hours; maximum degradation observed; read-out: Cbl-b Degredation Method B Dmax (%)

- Compound: "COc1c(N2CCC(O[C@H]3CC[C@H](CN4CCC5(CC4)CN(c4cc6c(c(C(F)(F)F)c4)CN(c4cccc([C@]7(Cc8nncn8C)C[C@@H](C#N)C7)c4)C6=O)C5)CC3)CC2)ccc2c1CN(C1CCC(=O)NC1=O)C2=O (some centres unmarked) [Example 186]"
  Tgt: "Cbl-b (Homo sapiens, UniProt Q13191)"
  Dmax: "35 to 70%"
- Compound: "Cc1cc(N2CCC(CN3CCC4(CC3)CN(c3cc5c(c(C(F)(F)F)c3)CN(c3cccc([C@]6(Cc7nncn7C)C[C@@H](C#N)C6)c3)C5=O)C4)CC2)c(F)c2c1C(=O)N(C1CCC(=O)NC1=O)C2 (some centres unmarked) [Example 171]"
  Tgt: "Cbl-b (Homo sapiens, UniProt Q13191)"
  Dmax: "35 to 70%"
- Compound: "Cc1cc(N2CCC(O[C@H]3CC[C@H](CN4CCN(Cc5cc6c(c(C(F)(F)F)c5)CN(c5cccc(C7(Cc8nncn8C)CC(C#N)C7)c5)C6=O)C(C)(C)C4)CC3)CC2)c(F)c2c1C(=O)N(C1CCC(=O)NC1=O)C2 (some centres unmarked) [Example 251]"
  Tgt: "Cbl-b (Homo sapiens, UniProt Q13191)"
  Dmax: "> 70%"
- Compound: "CC1CN(C[C@H]2CC[C@H](OC3CCN(c4ccc5c(n4)C(C)N(C4CCC(=O)NC4=O)C5=O)CC3)CC2)CCN1Cc1cc2c(c(C(F)(F)F)c1)CN(c1cccc(C3(Cc4nncn4C)CCC3)c1)C2=O (some centres unmarked) [Example 209]"
  Tgt: "Cbl-b (Homo sapiens, UniProt Q13191)"
  Dmax: "35 to 70%"

Write down measured Dmax (Cbl-b (Homo sapiens, UniProt Q13191)) for this compound. CC1c2nc(N3CCC(O[C@H]4CC[C@H](CN5CCN(Cc6cc7c(c(C(F)(F)F)c6)CN(c6cccc(C8(Cc9nncn9C)COC8)c6)C7=O)C(C)(C)C5)CC4)CC3)ccc2C(=O)N1C1CCC(=O)NC1=O (relative stereo) [Example 246]
35 to 70%

Provide measured Dmax on Cbl-b (Homo sapiens, UniProt Q13191) for C[C@H]1CN(CC2CCC(OC3CCN(c4ccc5c(c4F)CN(C4CCC(=O)NC4=O)C5=O)CC3)CC2)[C@@H](C)CN1Cc1cc2c(c(C(F)(F)F)c1)CN(c1cccc(C3(Cc4nncn4C)COC3)c1)C2=O (some centres unmarked) [Example 242] please.
> 70%

Enter recorded Dmax with Cbl-b (Homo sapiens, UniProt Q13191) for Cn1cnnc1CC1(c2cccc(N3Cc4c(cc(CN[C@H]5CC[C@H](N6CCN(c7ccc8c(c7)C(=O)N(C7CCC(=O)NC7=O)C8=O)CC6)CC5)cc4C(F)(F)F)C3=O)c2)COC1 (some centres unmarked) [Example 43] here.
< 35%

For Cbl-b (Homo sapiens, UniProt Q13191), give Dmax of the listed compound: COc1c(N2CCC(O[C@H]3CC[C@@H](CN4CCN(C[C@H]5CCCN(Cc6cc7c(c(C(F)(F)F)c6)CN(c6cccc(C8(Cc9nncn9C)COC8)c6)C7=O)C5)CC4)CC3)CC2)ccc2c1CN(C1CCC(=O)NC1=O)C2=O (some centres unmarked) [Example 163]
> 70%

Enter measured Dmax, system Cbl-b (Homo sapiens, UniProt Q13191), for the compound shown: CC1c2nc(N3CCC(O[C@H]4CC[C@H](CN5CCN(Cc6cc7c(c(C(F)(F)F)c6)CN(c6cccc(C8(Cc9nncn9C)CC8)c6)C7=O)CC5)CC4)CC3)ccc2C(=O)N1C1CCC(=O)NC1=O (mixture of isomers) [Example 234]
35 to 70%

Find the measured Dmax of CC1c2nc(N3CCC(O[C@H]4CC[C@@H](CN5[C@@H](C)CN(Cc6cc7c(c(C(F)(F)F)c6)CN(c6cccc(C8(Cc9nncn9C)COC8)c6)C7=O)C[C@@H]5C)CC4)CC3)ccc2C(=O)N1C1CCC(=O)NC1=O (some centres unmarked) [Example 249] with Cbl-b (Homo sapiens, UniProt Q13191) as test system.
> 70%

Retrieve Dmax on Cbl-b (Homo sapiens, UniProt Q13191); query CC1c2nc(N3CCC(O[C@H]4CC[C@H](CN5CCN(Cc6cc(C(F)(F)F)c7cn(-c8cccc(C9(Cc%10nncn%10C)COC9)c8)nc7c6)CC5)CC4)CC3)ccc2C(=O)N1C1CCC(=O)NC1=O (some centres unmarked) [Example 216]
< 35%

State Dmax on Cbl-b (Homo sapiens, UniProt Q13191). Entry: CC1c2nc(N3CCC(O[C@H]4CC[C@@H](CN5CCN(C[C@H]6CCCN(Cc7cc8c(c(C(F)(F)F)c7)CN(c7cccc(C9(Cc%10nncn%10C)COC9)c7)C8=O)C6)CC5)CC4)CC3)ccc2C(=O)N1C1CCC(=O)NC1=O (some centres unmarked) [Example 160]
35 to 70%

Please report the measured Dmax for Cn1cnnc1CC1(c2cccc(N3Cc4c(cc(CN5CCC[C@H](CN6CCN(C(=O)[C@H]7CC[C@@H](OC8CCN(c9ccc%10c(c9F)CN(C9CCC(=O)NC9=O)C%10=O)CC8)CC7)CC6)C5)cc4C(F)(F)F)C3=O)c2)COC1 (some centres unmarked) [Example 113] tested on Cbl-b (Homo sapiens, UniProt Q13191).
35 to 70%

Quote Dmax with test system Cbl-b (Homo sapiens, UniProt Q13191) for COc1c(N2CCC(O[C@H]3CC[C@H](CN4CCN(Cc5cc6c(c(C(F)(F)F)c5)CN(c5cccc(C7(Cc8nncn8C)COC7)c5)C6=O)CC4)CC3)CC2)ccc2c1CN(C1CCC(=O)NC1=O)C2=O (some centres unmarked) [Example 193]
35 to 70%

Report the value of Dmax obtained on Cbl-b (Homo sapiens, UniProt Q13191) for COc1c(N2CCC(O[C@H]3CC[C@H](CN4CCN(Cc5cc6c(c(C(F)(F)F)c5)CN(c5cccc([C@]7(Cc8nncn8C)C[C@@H](C#N)C7)c5)C6=O)CC4)CC3)CC2)ccc2c1CN(C1CCC(=O)NC1=O)C2=O (some centres unmarked) [Example 199] .
35 to 70%

Please respond with reported Dmax (system Cbl-b (Homo sapiens, UniProt Q13191)) for Cc1cc(N2CCC(CN3CCC4(C3)CN(c3cc5c(c(C(F)(F)F)c3)CN(c3cccc([C@]6(Cc7nncn7C)C[C@@H](C#N)C6)c3)C5=O)C4)CC2)c(F)c2c1C(=O)N(C1CCC(=O)NC1=O)C2 (some centres unmarked) [Example 176] .
35 to 70%

Report value only: Dmax, Cbl-b (Homo sapiens, UniProt Q13191), Cn1cnnc1CC1(c2cccc(N3Cc4c(cc(CN5CCC[C@H](CN6CCC(CN7CC8(C7)CN(c7ccc9c(c7)C(=O)N(C7CCC(=O)NC7=O)C9=O)C8)CC6)C5)cc4C(F)(F)F)C3=O)c2)COC1 (some centres unmarked) [Example 114]
< 35%
